System: SK-MEL-28 melanoma
Assay: NCI-60 one-dose screen, 48 h
Conditions: 10 µM unless noted
About 83,000 compounds went through this panel and 20% of them were active in at least one assay; those are over-represented in the sample as a whole. Calls of active or inactive are those of the source. The calls were made as follows: active = growth percent below 10; inactive = the rest.
Labels: True = active, False = inactive

- CS(=O)(=O)Nc1cc(-c2ccc3ncnc(Nc4cccc(Cl)c4)c3c2)cnc1Cl: True
- COc1ccc(Nc2nccc(Nc3ccc4[nH]ncc4c3)n2)cc1: False
- O=C(NC1CCCCCC1)c1ccc2c(=O)n3c(nc2c1)CCCCC3: False
- Cc1ccc(Nc2nc(N)nc(N)c2N=O)cc1Cl: False
- CCCCCCCCCCCCCCCCCCOc1ccccc1CC(=O)OCC[N+]1(C)CCCCC1: False
- CCCC[N+]1(C)CCN=C1Cc1ccccc1 (stereo unspecified): False
